Origin of measurements: ChEMBL document CHEMBL2413072

system: OVCAR-8; experiment: Growth inhibition of human OVCAR8 cells assessed as growth inhibition at 10 uM by sulforhodamine B assay; type: functional; settings: read-out: GI
VALUE_TYPE: inhibition of growth at 10 µM (%)
Unit % implied. Number only.

Some compounds with recorded inhibition of growth at 10 µM:
COc1cc(/C=C2\C[C@]3(C)[C@H]4CC=C5[C@@H]6CC(C)(C)C[C@@H](O)[C@]6(C(=O)O)CC[C@@]5(C)[C@]4(C)CC[C@H]3C(C)(C)C2=O)ccc1O	20.2
CC1(C)C[C@@H](O)[C@]2(C(=O)O)CC[C@]3(C)C(=CC[C@@H]4[C@@]5(C)CCC(=O)C(C)(C)[C@@H]5CC[C@]43C)[C@@H]2C1	19.2
CC(C)=CC(=O)O[C@@H]1CC(C)(C)C[C@H]2C3=CC[C@@H]4[C@@]5(C)CC[C@H](O)C(C)(C)[C@@H]5CC[C@@]4(C)[C@]3(C)CC[C@@]12C(=O)O	40.1

Attention now shifts to the item below.
Request - read-out inhibition of growth at 10 µM | tested on OVCAR-8 | compound CC(C)=CC(=O)O[C@@H]1CC(C)(C)C[C@H]2C3=CC[C@@H]4[C@@]5(C)CCC(=O)C(C)(C)[C@@H]5CC[C@@]4(C)[C@]3(C)CC[C@@]12C(=O)O
44.9
